Assay: Plasma clearance in iv dosed rat
valueKind: clearance (mL/min/kg)
Answer in mL/min/kg, number only, no unit symbol.

Worked examples follow.
N=C(N)c1ccc2[nH]c(-c3cc(C(CC(=O)O)C(=O)O)cc(-c4cccc([N+](=O)[O-])c4)c3O)nc2c1 (stereo not drawn) : 0.04
N=C(N)c1ccc2[nH]c(-c3cc(CC(=O)O)cc(-c4cc(F)ccc4O)c3O)nc2c1 : 8.1

Now for another entry.
Query block: Bench note: what clearance did N=C(N)c1ccc2[nH]c(-c3cc(CC(CC(=O)O)C(=O)O)cc(-c4cc(F)ccc4O)c3O)nc2c1 (stereo not drawn) show?
Result block: 2.6
